# METHOD_NOTES: melting temperature; fluorescence melt of hairpins on a sequencing array, two-state fit, raised by 9.35 °C to match UV melts
# TEST_SETTINGS: sodium 0.088 M
MEASURED_ATTRIBUTE: Tm (°C)
# number only, unit °C dropped from output

Fill in the blank: the reported Tm of GGGATCGAAAGATTGCCC ((((((....)))..))) is ____.
32.6

Fill in the blank: the reported Tm of GATCAGGAACCTGATC ((((((....)))))) is ____.
54.5

Fill in the blank: the reported Tm of GCGACGCATCGC ((((....)))) is ____.
49.8

Fill in the blank: the reported Tm of GCGGAGCCCCGC ((((....)))) is ____.
55.8

Fill in the blank: the reported Tm of GTAGGGGGAAACCCCTAC (((((((....))))))) is ____.
61.9

Fill in the blank: the reported Tm of GTTTTACGAAAGTACAAC (((.(((....))).))) is ____.
35.5

Fill in the blank: the reported Tm of GATTCCGAAAGGATATC ((((((....))).))) is ____.
39.5

Fill in the blank: the reported Tm of GCCGTGCGAAAGCAGTGC ((..(((....)))..)) is ____.
44.7

Fill in the blank: the reported Tm of GATCGAGTTTTCGATC ((((((....)))))) is ____.
54.2

Fill in the blank: the reported Tm of GTGAGACGAAAGTCCCAC (((.(((....))).))) is ____.
50.4

Fill in the blank: the reported Tm of GGGAGTGCGAAAGCACCC (((..(((....)))))) is ____.
55.2

Fill in the blank: the reported Tm of GCCCCTGGAAACAAGGGC ((((.((....)).)))) is ____.
46.1

Fill in the blank: the reported Tm of GATCTCTTGCGAGATC ((((((....)))))) is ____.
51.9

Fill in the blank: the reported Tm of GATCTTAGAAAGATC ((((((...)))))) is ____.
41.5

Fill in the blank: the reported Tm of GATCTGGCAGCAGATC ((((((....)))))) is ____.
51.3

Fill in the blank: the reported Tm of CGCGGAAAAATCCGCG ((((((....)))))) is ____.
58.9

Fill in the blank: the reported Tm of GGTAGAGGAAACTCCACC (((.(((....))).))) is ____.
31.6

Fill in the blank: the reported Tm of GATCACCTTCGTGATC ((((((....)))))) is ____.
56.7

Fill in the blank: the reported Tm of GGATGTGGAAACATGTCC (((..((....))..))) is ____.
40

Fill in the blank: the reported Tm of GCAACCGAAAGGTGTGC ((((((....))).))) is ____.
52.4

Fill in the blank: the reported Tm of GCATCTGCGAAAGCATGC (((..(((....)))))) is ____.
39.8

Fill in the blank: the reported Tm of GGCTTAGAAATAAGCC ((((((....)))))) is ____.
55.4

Fill in the blank: the reported Tm of GCGTGGGGAAACCTGCGC (((..((....))..))) is ____.
53.3

Fill in the blank: the reported Tm of GATCACAAGGGTGATC ((((((....)))))) is ____.
55.9

Fill in the blank: the reported Tm of GGGTATGGAAACATGTCC ((..(((....)))..)) is ____.
34

Fill in the blank: the reported Tm of GATCAGAGACCTGATC ((((((....)))))) is ____.
45.6
